meta.source: ChEMBL document CHEMBL5442175

Record form. Attribute: pKi. Fill in for each entry.
Lab note: report pKi as minus log10 of the concentration in molar units, number only.

Here COc1ccc(NS(=O)(=O)c2sc3ccc(Cl)cc3c2C)cc1N1CCNCC1 was tested on Sodium-dependent noradrenaline transporter (Homo sapiens), and its pKi came to 5.25

Measured on Sodium-dependent noradrenaline transporter (Homo sapiens), S=C(NCCCc1c[nH]cn1)NCCCN(Cc1ccc(Cl)c(Cl)c1)c1ccc(Br)cn1 has a documented pKi of 6.21

Sodium-dependent noradrenaline transporter (Homo sapiens) data for Cc1c(P(=S)(c2ccccc2)c2ccccc2)n2ccccc2[n+]1C/C=C/c1ccccc1 ; its pKi: 6.02

Param item: NCCc1c[nH]c2ccc(C(N)=O)cc12 ; param system: Sodium-dependent noradrenaline transporter (Homo sapiens); output pKi: 5.58

Measured pKi for this entry CN1C2CCC1CC(OC(c1ccc(F)cc1)c1ccc(F)cc1)C2 (stereo unspecified) on Sodium-dependent noradrenaline transporter (Homo sapiens): 6.11

Reported Sodium-dependent noradrenaline transporter (Homo sapiens) pKi for item OC1(c2ccc(Cl)cc2)CCN(Cc2c[nH]c3ccccc23)CC1 was 5.83

---

The listing below reports pKi for compounds tested on 5-hydroxytryptamine receptor 2B (Homo sapiens, UniProt P41595).
Sequence (P41595 whole entry): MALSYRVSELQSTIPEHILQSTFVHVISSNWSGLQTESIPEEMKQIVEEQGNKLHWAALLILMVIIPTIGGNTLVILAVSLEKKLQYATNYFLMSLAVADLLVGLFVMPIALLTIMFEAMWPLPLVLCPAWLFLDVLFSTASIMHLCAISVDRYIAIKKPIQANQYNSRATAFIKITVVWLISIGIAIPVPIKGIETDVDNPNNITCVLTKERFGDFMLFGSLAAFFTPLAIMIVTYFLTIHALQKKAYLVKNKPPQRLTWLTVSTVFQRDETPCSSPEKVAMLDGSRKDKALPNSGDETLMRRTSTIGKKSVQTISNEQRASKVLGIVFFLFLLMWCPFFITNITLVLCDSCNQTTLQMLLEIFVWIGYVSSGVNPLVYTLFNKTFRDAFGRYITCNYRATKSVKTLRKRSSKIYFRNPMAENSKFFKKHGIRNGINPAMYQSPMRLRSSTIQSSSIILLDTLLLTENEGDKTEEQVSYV
Counter-ions that a name gives are not always drawn.
Lab note: report pKi as minus log10 of the concentration in molar units, number only.

Lab note: CS(=O)(=O)NC[C@H]1CC[C@H](Nc2nc3c(s2)CCSc2ccccc2-3)CC1 gave pKi of 6.40

Field pKi (entry COc1cc(-n2cnc3cc(-c4ccc(Cl)cc4)sc3c2=O)ccc1OCCN1CCCC1 ) reads 6.28

Lab note: measured pKi of C[C@H](Cc1cc2c(c(C(N)=O)c1)N(CCCO)CC2)NCCOc1ccccc1OCC(F)(F)F was 5.68

Per the records, this compound ( Cc1ccc2c(c1)c1c(n2CCc2ccc(C)nc2)CCN(C)C1 [LATREPIRDINE] ) has pKi equal to 6.22

Entry CCCCCNC(=N)N/N=C/c1c[nH]c2ccc(OC)cc12 [TEGASEROD MALEATE] ; pKi = 7.81

The compound listed as Cc1cccc(NC(=O)N[C@@H]2N=C(c3ccccc3)c3ccccc3N(C)C2=O)c1 shows pKi equal to 5.21

---

For each record, write down the corresponding pKi.
Where a name gives a salt, the structure may show the parent alone.
Worth noting: pKi values are minus log10 of concentrations stated in mol/L.

Entry COc1ccccc1N1CCN(CCCCNC(=O)c2ccc3ccccc3c2)CC1 under Sodium-dependent noradrenaline transporter (Homo sapiens) had pKi of 5.78

Note to self: pKi of C[C@@H](NCCCc1cccc(C(F)(F)F)c1)c1cccc2ccccc12 [CINACALCET HYDROCHLORIDE] with Sodium-dependent noradrenaline transporter (Homo sapiens) was 5.84

// pKi (Sodium-dependent noradrenaline transporter (Homo sapiens)) for N#Cc1c[nH]c2c(C(=O)N3CCN(CCc4ccc(F)cc4)CC3)cccc12 = 5.60

Reported Sodium-dependent noradrenaline transporter (Homo sapiens) pKi for item O=C(c1cc2c(cc1F)OC(c1ccc(F)cc1)(c1ccc(Cl)cc1Cl)O2)N1CCOCC1 (centres undefined) was 5.60

// pKi (Sodium-dependent noradrenaline transporter (Homo sapiens)) for COc1cccc([C@@H](C)NCCCc2ccccc2Cl)c1 [TECALCET HYDROCHLORIDE] = 5.72

Record NCCc1cn(S(=O)(=O)c2c(Cl)nc3sccn23)c2ccccc12 has Sodium-dependent noradrenaline transporter (Homo sapiens) pKi equal to 5.90

For the molecule O=c1ccc2ccc(OCCCCN3CCN(c4cccc5sccc45)CC3)cc2[nH]1 , the measured pKi on Sodium-dependent noradrenaline transporter (Homo sapiens) was 6.16

Considering CCOC(=O)c1c(C)[nH]c2ccc3c(c12)CN1CCc2cc(OC)ccc2C1O3 (centres undefined) , its pKi with Sodium-dependent noradrenaline transporter (Homo sapiens) was recorded as 5.55

---

- Assay system: Alpha-1D adrenergic receptor (Homo sapiens)
- Sequence (P25100 whole entry): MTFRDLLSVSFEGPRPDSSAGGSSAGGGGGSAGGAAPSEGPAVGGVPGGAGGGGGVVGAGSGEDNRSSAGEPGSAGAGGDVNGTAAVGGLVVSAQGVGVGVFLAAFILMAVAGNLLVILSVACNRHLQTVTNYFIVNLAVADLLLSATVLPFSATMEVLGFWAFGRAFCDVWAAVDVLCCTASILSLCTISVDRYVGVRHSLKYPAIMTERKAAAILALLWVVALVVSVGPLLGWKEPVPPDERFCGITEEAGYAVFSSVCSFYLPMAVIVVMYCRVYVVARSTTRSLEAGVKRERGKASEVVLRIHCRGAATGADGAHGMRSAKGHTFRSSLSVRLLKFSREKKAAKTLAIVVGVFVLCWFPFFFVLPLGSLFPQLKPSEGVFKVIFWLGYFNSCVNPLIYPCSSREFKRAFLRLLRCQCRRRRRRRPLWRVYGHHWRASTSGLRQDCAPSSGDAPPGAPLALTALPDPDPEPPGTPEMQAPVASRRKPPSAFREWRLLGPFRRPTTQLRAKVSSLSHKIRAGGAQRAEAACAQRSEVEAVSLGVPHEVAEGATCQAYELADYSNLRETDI
pKi: −log10 of the molar value. Where a name gives a salt, the structure may show the parent alone.
Label rule, in plain words: pKi of 6 and up is rule met, under 6 is rule not met.

Quick check, pKi >= 6? Cc1c(OCc2cccc(-c3ccc(C(=O)O)cc3)c2)cc2c(c1C)C(=O)C(C1CCCC1)C2 (stereo unspecified)
rule not met

pKi >= 6 for CN(C)C(=O)N[C@H]1CC[C@H](CCN2CCN(c3cccc(Cl)c3Cl)CC2)CC1 [CARIPRAZINE HYDROCHLORIDE] ?
rule met

State whether the measured pKi reaches 6, counting equality as reaching it, for O=c1ccc2ccc(OCCCCN3CCN(c4cccc5sccc45)CC3)cc2[nH]1
rule met

Identify whether the reported pKi of the following compound is 6 or greater: CN1CCCC(n2nc(Cc3ccc(Cl)cc3)c3ccccc3c2=O)CC1 (stereo unspecified) [AZELASTINE HYDROCHLORIDE]
rule met

Tell me whether pKi is at least 6 here: Clc1cccc(Cl)c1N=C1NCCN1 [CLONIDINE HYDROCHLORIDE]
rule not met

Textbook exercise: given the entry C[C@H](Cc1cc2c(c(C(N)=O)c1)N(CCCO)CC2)NCCOc1ccccc1OCC(F)(F)F , state whether its pKi is greater than or equal to 6.
rule met

Does CCc1nn(CCCN2CCN(c3cccc(Cl)c3)CC2)c(=O)n1CCOc1ccccc1 [NEFAZODONE HYDROCHLORIDE] have a reported pKi of at least 6?
rule met

Is the recorded value of pKi equal to or greater than 6 for this compound? Cc1nc(-c2ccc(-c3ccc(C(=O)N4CCc5cc6c(cc54)C4(CCN(C)CC4)CO6)cc3)c(C)c2)no1
rule not met

Does the compound CN1C2CCC1CC(OC(c1ccc(F)cc1)c1ccc(F)cc1)C2 (stereo unspecified) have recorded pKi that is 6 or more?
rule met

Decide: pKi of Brc1c(NC2=NCCN2)ccc2nccnc12 >= 6?
rule not met

Hi, just wondering whether S=C(NCCCc1c[nH]cn1)NCCCN(Cc1ccc(Cl)c(Cl)c1)c1ccc(Br)cn1 shows pKi of 6 or higher.
rule not met

Confirm if pKi reported for the compound CCCCCCCCCCCCCCCCOC[C@H](COP(=O)([O-])OCC[N+](C)(C)C)OC(C)=O is 6 or above.
rule not met

Please check the record CCCCCNC(=N)N/N=C/c1c[nH]c2ccc(OC)cc12 [TEGASEROD MALEATE] and state if its pKi is at or above 6.
rule not met

---

Counter-ions that a name gives are not always drawn.
Endpoint label: pKi
Just so you know, pKi here is -log10 of the concentration in molar units; reply with that number alone.

Kindly note: D(4) dopamine receptor (Homo sapiens, UniProt P21917), CN1C[C@H](C(=O)N[C@]2(C)O[C@@]3(O)[C@@H]4CCCN4C(=O)[C@H](Cc4ccccc4)N3C2=O)C[C@@H]2c3cccc4[nH]cc(c34)C[C@H]21 [DIHYDROERGOTAMINE MESYLATE] , pKi value reported: 7.48

# value of pKi, D(4) dopamine receptor (Homo sapiens, UniProt P21917), item CCCCCNC(=N)N/N=C/c1c[nH]c2ccc(OC)cc12 [TEGASEROD MALEATE] = 6.72

So the reported pKi for CN(C)C(=O)C(CCN1CCC(O)(c2ccc(Cl)cc2)CC1)(c1ccccc1)c1ccccc1 [LOPERAMIDE HYDROCHLORIDE] , on D(4) dopamine receptor (Homo sapiens, UniProt P21917), turned out to be 5.84

Lab note: compound OC1(c2ccc(Cl)cc2)CCN(Cc2c[nH]c3ccccc23)CC1 tested on D(4) dopamine receptor (Homo sapiens, UniProt P21917); recorded pKi was 6.24

# lookup: CN[C@@H]1CCc2[nH]c3ccc(C(N)=O)cc3c2C1 [FROVATRIPTAN SUCCINATE] on D(4) dopamine receptor (Homo sapiens, UniProt P21917), pKi = 6.04

D(4) dopamine receptor (Homo sapiens, UniProt P21917) assay, compound N#Cc1c[nH]c2c(C(=O)N3CCN(CCc4ccc(F)cc4)CC3)cccc12 , recorded pKi = 6.74

Record CCc1nn(CCCN2CCN(c3cccc(Cl)c3)CC2)c(=O)n1CCOc1ccccc1 [NEFAZODONE HYDROCHLORIDE] has D(4) dopamine receptor (Homo sapiens, UniProt P21917) pKi equal to 6.49

The compound OCc1cc(C(O)CNCCCCCCOCCCCc2ccccc2)ccc1O (stereo not drawn) on D(4) dopamine receptor (Homo sapiens, UniProt P21917): pKi was 5.97

---

- Assay system: 5-hydroxytryptamine receptor 2C (Homo sapiens, UniProt P28335)
- Sequence (P28335 whole entry): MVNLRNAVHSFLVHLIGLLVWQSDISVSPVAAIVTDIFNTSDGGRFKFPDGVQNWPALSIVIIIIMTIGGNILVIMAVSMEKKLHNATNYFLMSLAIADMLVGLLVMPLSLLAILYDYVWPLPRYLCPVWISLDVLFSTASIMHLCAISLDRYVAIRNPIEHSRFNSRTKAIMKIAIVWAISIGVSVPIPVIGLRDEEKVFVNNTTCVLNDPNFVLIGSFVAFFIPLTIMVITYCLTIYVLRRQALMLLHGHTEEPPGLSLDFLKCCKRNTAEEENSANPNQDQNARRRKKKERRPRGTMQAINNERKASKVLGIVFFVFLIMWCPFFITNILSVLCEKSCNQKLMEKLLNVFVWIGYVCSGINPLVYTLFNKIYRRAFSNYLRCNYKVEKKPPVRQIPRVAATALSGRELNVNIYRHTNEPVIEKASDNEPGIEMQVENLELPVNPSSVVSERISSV
pKi: −log10 of the molar value. Where a name gives a salt, the structure may show the parent alone.
Could you label it t if measured pKi is 6 or higher, and f otherwise?

Determine whether this compound has pKi no lower than 6: COC(=O)C1=C(C)NC(C)=C(C(=O)OCCCN2CCC(c3ccccc3)(c3ccccc3)CC2)[C@H]1c1cccc([N+](=O)[O-])c1 [NIGULDIPINE]
f

Confirm if pKi reported for the compound O=C(c1cc2c(cc1F)OC(c1ccc(F)cc1)(c1ccc(Cl)cc1Cl)O2)N1CCOCC1 (stereo not drawn) is 6 or above.
t

Exam item: decide whether the reported pKi for Cc1ccccc1C(=O)Nc1ccc(C(=O)N2CCCC(O)c3cc(Cl)ccc32)c(C)c1 (stereo not drawn) [TOLVAPTAN] is at least 6.
f

Please check the record CC(C)[C@H](CO)Nc1nc(Nc2cccc(Cl)c2)c2ncn(C(C)C)c2n1 [PURVALANOLA] and state if its pKi is at or above 6.
f

Check this compound for pKi at or above 6: CCc1ccc(OCc2ccccc2C(=O)Nc2ccc3nc(C)cc(N)c3c2)cc1
t

Item Clc1cccc(Cl)c1N=C1NCCN1 [CLONIDINE HYDROCHLORIDE] with pKi of 6 or above?
f
